Numbers sourced from ChEMBL document CHEMBL2346640.

- system: Protein arginine N-methyltransferase 5 (Homo sapiens, UniProt O14744)
- Sequence (O14744 whole entry): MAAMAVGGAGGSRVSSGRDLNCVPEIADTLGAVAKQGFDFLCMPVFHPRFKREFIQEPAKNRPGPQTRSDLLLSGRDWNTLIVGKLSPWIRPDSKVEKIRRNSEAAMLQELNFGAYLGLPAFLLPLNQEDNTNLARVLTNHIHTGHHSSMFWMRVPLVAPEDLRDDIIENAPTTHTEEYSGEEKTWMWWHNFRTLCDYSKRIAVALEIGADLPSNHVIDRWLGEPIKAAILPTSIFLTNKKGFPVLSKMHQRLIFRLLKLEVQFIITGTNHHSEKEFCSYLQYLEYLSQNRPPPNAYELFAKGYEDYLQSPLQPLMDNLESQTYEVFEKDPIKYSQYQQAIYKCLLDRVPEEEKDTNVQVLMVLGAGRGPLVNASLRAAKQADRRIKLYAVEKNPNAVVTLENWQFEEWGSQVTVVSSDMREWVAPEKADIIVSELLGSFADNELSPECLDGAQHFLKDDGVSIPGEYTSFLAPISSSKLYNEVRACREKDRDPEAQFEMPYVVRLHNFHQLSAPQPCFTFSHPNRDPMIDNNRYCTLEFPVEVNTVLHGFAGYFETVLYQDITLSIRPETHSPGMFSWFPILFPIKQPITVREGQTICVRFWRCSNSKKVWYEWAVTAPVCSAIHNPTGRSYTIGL
pKi: −log10 of the molar value.

{"smiles_code": "Nc1ncnc2c1c(Br)cn2[C@@H]1O[C@H](CSCC[C@H](N)C(=O)O)[C@@H](O)[C@H]1O", "system": "Protein arginine N-methyltransferase 5 (Homo sapiens, UniProt O14744)", "pKi": 5.94}

----------
- system: Nicotinamide N-methyltransferase (Homo sapiens)
- Sequence (P40261 whole entry): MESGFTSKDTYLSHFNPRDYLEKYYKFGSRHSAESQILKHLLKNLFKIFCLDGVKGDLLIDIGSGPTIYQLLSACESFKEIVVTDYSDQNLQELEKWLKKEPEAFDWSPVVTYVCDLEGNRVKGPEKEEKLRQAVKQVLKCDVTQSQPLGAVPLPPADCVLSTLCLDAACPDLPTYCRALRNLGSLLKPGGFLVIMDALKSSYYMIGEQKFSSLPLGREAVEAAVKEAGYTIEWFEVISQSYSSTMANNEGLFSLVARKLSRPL
- experiment_notes: Inhibition of recombinant full length human NNMT measured for 30 mins by SAHH-coupled fluorescence assay
observed_property: Ki (nM)

{"smiles_code": "Nc1ncnc2c1c(Br)cn2[C@@H]1O[C@H](CSCC[C@H](N)C(=O)O)[C@@H](O)[C@H]1O", "value_reported": 750}
